- Assayed target: Vitamin D3 receptor (Homo sapiens, UniProt P11473)
- Test name: Displacement of [3H]-1,25(OH)2D3 from recombinant human VDR ligand binding domain
Test readout: pIC50
Please treat pIC50 as minus the base-10 logarithm of the molar concentration.

Measured pIC50, C=C1[C@H](O)CC(=C/C=C2\CCC[C@]3(C)[C@@H](C#CC#C[C@@H](O)CC45CC6CC(CC(C6)C4)C5)CC[C@@H]23)C[C@H]1O : 7.46

For reference, reported pIC50 for C=C1[C@H](O)CC(=C/C=C2\CCC[C@]3(C)[C@@H](C#CC#C[C@H](O)C45CC6CC(CC(C6)C4)C5)CC[C@@H]23)C[C@H]1O stands at 7.90

Entry C=C1[C@H](O)CC(=C/C=C2\CCC[C@]3(C)[C@@H](C#CC#C[C@@H](O)C45CC6CC(CC(C6)C4)C5)CC[C@@H]23)C[C@H]1O — recorded pIC50 = 8.30

Looking up C=C1[C@H](O)CC(=C/C=C2\CCC[C@]3(C)[C@@H](C#CC#C[C@H](O)CC45CC6CC(CC(C6)C4)C5)CC[C@@H]23)C[C@H]1O , I found its pIC50 recorded as 7.46

---

- Assayed target: Vitamin D3 receptor (Homo sapiens, UniProt P11473)
- Test name: Agonist activity at VDR (unknown origin) expressed in HEK293 cells cotransfected with RXRalpha assessed as RXRalpha recruitment by two-hybrid assay
- Format: cell-based
Test readout: pEC50
Note on units: pEC50 is unitless, being -log10 of a concentration expressed in mol/L.

Lookup result for C=C1[C@H](O)CC(=C/C=C2\CCC[C@]3(C)[C@@H](C#CC#C[C@@H](O)C45CC6CC(CC(C6)C4)C5)CC[C@@H]23)C[C@H]1O ; measured pEC50: 9.15

---

- Assayed target: Vitamin D3 receptor (Homo sapiens)
- Test name: Agonist activity at VDR (unknown origin) expressed in HEK293 cells cotransfected with NCoR assessed as decrease in NCoR recruitment by two-hybrid assay
- Type: cell-based
Test readout: pIC50
Scale for pIC50: -log10 of concentration given in mol/L; no unit attached.

Quick note, pIC50 for C=C1[C@H](O)CC(=C/C=C2\CCC[C@]3(C)[C@@H](C#CC#C[C@@H](O)C45CC6CC(CC(C6)C4)C5)CC[C@@H]23)C[C@H]1O landed at 10.05

---

Please provide measured EC50 for the entries that follow.
- Assayed target: UniProt P11473
- Sequence (P11473 whole entry): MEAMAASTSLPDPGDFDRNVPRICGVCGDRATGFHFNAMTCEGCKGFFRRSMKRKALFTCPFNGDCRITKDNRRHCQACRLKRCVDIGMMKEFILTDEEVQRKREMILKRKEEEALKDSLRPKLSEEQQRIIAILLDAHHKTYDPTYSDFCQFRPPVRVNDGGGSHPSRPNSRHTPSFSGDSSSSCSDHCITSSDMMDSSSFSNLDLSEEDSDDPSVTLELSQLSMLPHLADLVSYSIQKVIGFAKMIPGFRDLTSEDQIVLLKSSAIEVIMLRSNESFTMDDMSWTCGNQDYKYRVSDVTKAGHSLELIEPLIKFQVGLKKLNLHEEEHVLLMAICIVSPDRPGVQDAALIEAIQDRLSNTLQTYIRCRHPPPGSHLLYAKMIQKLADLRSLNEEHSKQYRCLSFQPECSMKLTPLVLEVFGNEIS
- Test name: Agonist activity at VDR in human HEK293 cells assessed as transcriptional activity after 16 to 24 hrs by luciferase reporter gene assay
- Type: cell-based
# number only, unit nM dropped from output

EC50 reported for this compound C=C1[C@H](O)CC(=C/C=C2\CCC[C@]3(C)[C@@H](C#CC#C[C@H](O)CC45CC6CC(CC(C6)C4)C5)CC[C@@H]23)C[C@H]1O : 30

// sample C=C1[C@H](O)CC(=C/C=C2\CCC[C@]3(C)[C@@H](C#CC#C[C@H](O)C45CC6CC(CC(C6)C4)C5)CC[C@@H]23)C[C@H]1O , its EC50 was 7

For this compound ( C=C1[C@H](O)CC(=C/C=C2\CCC[C@]3(C)[C@@H](C#CC#C[C@@H](O)C45CC6CC(CC(C6)C4)C5)CC[C@@H]23)C[C@H]1O ), measured EC50 is 1.5

EC50 measured on C=C1[C@H](O)CC(=C/C=C2\CCC[C@]3(C)[C@@H](C#CC#C[C@@H](O)CC45CC6CC(CC(C6)C4)C5)CC[C@@H]23)C[C@H]1O = 20

---

For each record, write down the corresponding Activity.
- Assayed target: Vitamin D3 receptor (Homo sapiens) (UniProt P11473)
- Test name: Displacement of [3H]-1,25(OH)2D3 from recombinant human VDR ligand binding domain relative to 1,25(OH)2D3
Number plus unit, in that order.

Recorded Activity (compound C=C1[C@H](O)CC(=C/C=C2\CCC[C@]3(C)[C@@H](C#CC#C[C@@H](O)CC45CC6CC(CC(C6)C4)C5)CC[C@@H]23)C[C@H]1O ): 1%

Activity for C=C1[C@H](O)CC(=C/C=C2\CCC[C@]3(C)[C@@H](C#CC#C[C@H](O)CC45CC6CC(CC(C6)C4)C5)CC[C@@H]23)C[C@H]1O is 1%

So, C=C1[C@H](O)CC(=C/C=C2\CCC[C@]3(C)[C@@H](C#CC#C[C@@H](O)C45CC6CC(CC(C6)C4)C5)CC[C@@H]23)C[C@H]1O ? Its Activity was 7%

// sample C=C1[C@H](O)CC(=C/C=C2\CCC[C@]3(C)[C@@H](C#CC#C[C@H](O)C45CC6CC(CC(C6)C4)C5)CC[C@@H]23)C[C@H]1O , its Activity was 3%
